ASSAY_SYSTEM: ERβ (Homo sapiens)
ASSAY_DETAILS: Phage ELISA / fingerprint on ER immobilized on biotinylated ERE (Examples 2.3-2.5)
Type: binding
Design: purchased PanVera Corporation, Madison, WI; key: semiquantitative scale of 0 to 7+; 1+: semiquantitative scale of 0 to 7+; 2+: semiquantitative scale of 0 to 7+; 3+: semiquantitative scale of 0 to 7+; 4+: semiquantitative scale of 0 to 7+; 5+: semiquantitative scale of 0 to 7+; 6+: semiquantitative scale of 0 to 7+; semiquantitative scale of 0 to 7+
RUN_PARAMETERS: ERβ and buffer
Provide the reported binding activity, ERβ and buffer of each item.

Exercise: For the sequence SSIKDFPNLISLLSR [Peptide 12E-β] , what binding activity, ERβ and buffer is on record?
Solution: 4+

Exercise: For the sequence SRECVGGWCLAELSR [Peptide 18b-β] , what binding activity, ERβ and buffer is on record?
Solution: 7+

Exercise: For the sequence SSRLVPHSFWLDGLMHGSR [Peptide 21t-β] , what binding activity, ERβ and buffer is on record?
Solution: 3+

Exercise: For the sequence SSYEIPKWALQWLSR [Peptide 34E-β] , what binding activity, ERβ and buffer is on record?
Solution: 4+

Exercise: For the sequence SSLDLSQFPMTASFLRESR [Peptide 35E-β] , what binding activity, ERβ and buffer is on record?
Solution: 2+

Exercise: For the sequence SSGLPPNFERMLKSR [Peptide 6b-β] , what binding activity, ERβ and buffer is on record?
Solution: 6+

Exercise: For the sequence SSRTLLEHYLLGGSR [Peptide 20E-β] , what binding activity, ERβ and buffer is on record?
Solution: 3+

Exercise: For the sequence SRDWRSGFLYELLSR [Peptide 4E-β] , what binding activity, ERβ and buffer is on record?
Solution: 5+

Exercise: For the sequence SYSKEWFEERLNSR [Peptide 4b-β] , what binding activity, ERβ and buffer is on record?
Solution: 7+

Exercise: For the sequence SSSMMREFFERELSR [Peptide 5b-β] , what binding activity, ERβ and buffer is on record?
Solution: 7+

Exercise: For the sequence SSWPNPTFWERQLSR [Peptide 3b-β] , what binding activity, ERβ and buffer is on record?
Solution: 5+

Exercise: For the sequence SRPYCLGDVWCLDSR [Peptide 2t-β] , what binding activity, ERβ and buffer is on record?
Solution: 7+

Exercise: For the sequence SSARPWWLQFEGSSR [Peptide 7t-β] , what binding activity, ERβ and buffer is on record?
Solution: 7+

====

ASSAY_SYSTEM: ERβ (Homo sapiens, UniProt Q92731)
Sequence (Q92731 whole entry): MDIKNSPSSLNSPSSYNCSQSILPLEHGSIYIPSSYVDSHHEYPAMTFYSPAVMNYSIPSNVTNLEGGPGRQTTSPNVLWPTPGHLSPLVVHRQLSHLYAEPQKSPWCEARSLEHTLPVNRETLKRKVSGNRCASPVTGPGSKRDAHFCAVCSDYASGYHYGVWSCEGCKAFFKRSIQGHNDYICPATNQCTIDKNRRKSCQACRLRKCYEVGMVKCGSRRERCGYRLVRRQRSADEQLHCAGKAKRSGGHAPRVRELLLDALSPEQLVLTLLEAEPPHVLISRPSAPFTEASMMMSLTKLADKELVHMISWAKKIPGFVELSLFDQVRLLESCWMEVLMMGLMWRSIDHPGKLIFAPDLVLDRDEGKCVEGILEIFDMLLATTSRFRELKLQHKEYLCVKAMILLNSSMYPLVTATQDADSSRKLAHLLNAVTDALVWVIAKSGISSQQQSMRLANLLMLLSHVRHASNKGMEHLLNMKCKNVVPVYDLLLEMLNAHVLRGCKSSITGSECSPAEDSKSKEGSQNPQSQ
ASSAY_DETAILS: Time resolved fluorescence (TRF) binding of europium-streptavidin peptide conjugates in the presence of modulators
Parameters: purchased PanVera Corporation, Madison, WI
RUN_PARAMETERS: peptide probe α/βIII, ERβ
MEASURE_NAME: pEC50
On this scale, pEC50 is minus log10 of a concentration expressed in M (mol/L).

Exercise: For the compound `CCN(CC)CCOc1ccc(C(=C(Cl)c2ccccc2)c2ccccc2)cc1` , what pEC50 is on record?
Solution: 7.09

====

ASSAY_SYSTEM: ERα (Homo sapiens, UniProt P03372)
Sequence (P03372 1-595): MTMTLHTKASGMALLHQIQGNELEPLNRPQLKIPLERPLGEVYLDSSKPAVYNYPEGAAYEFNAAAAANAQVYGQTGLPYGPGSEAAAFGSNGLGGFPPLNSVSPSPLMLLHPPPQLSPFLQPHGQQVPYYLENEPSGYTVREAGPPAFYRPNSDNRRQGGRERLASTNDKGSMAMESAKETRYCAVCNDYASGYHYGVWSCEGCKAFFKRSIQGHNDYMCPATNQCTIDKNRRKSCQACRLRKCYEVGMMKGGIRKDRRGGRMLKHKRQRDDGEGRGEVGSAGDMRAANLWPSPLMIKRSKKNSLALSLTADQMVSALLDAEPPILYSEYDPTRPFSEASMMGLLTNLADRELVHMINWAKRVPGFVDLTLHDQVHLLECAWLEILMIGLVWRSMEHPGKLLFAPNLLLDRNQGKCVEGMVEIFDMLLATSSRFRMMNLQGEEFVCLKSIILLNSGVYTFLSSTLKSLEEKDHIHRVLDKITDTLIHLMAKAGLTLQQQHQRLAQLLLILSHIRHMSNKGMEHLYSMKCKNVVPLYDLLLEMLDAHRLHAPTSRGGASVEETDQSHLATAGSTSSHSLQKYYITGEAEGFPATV
ASSAY_DETAILS: Disruption of ER mediated transcriptional activity, C3-Luc reporter in HepG2 cells (Example 4.4)
Assay type: cell-based
RUN_PARAMETERS: 4-OH tamoxifen activated ER, Gal4-peptide fusion
MEASURE_NAME: block of the partial agonist activity of tamoxifen

SEQUENCE_CODE	ASSAY_SYSTEM	MEASURED
SSPGSREWFKDMLSR [α/β V]	ERα (Homo sapiens, UniProt P03372)	efficiently block
SSLTSRDFGSWYASR [α II]	ERα (Homo sapiens, UniProt P03372)	efficiently block
SSWDMHQFFWEGVSR [α/β III]	ERα (Homo sapiens, UniProt P03372)	efficiently block
